Data provenance: paper PMC9332313

- test target: T1, SH2 domain of Crkl protein (residues 1-111), H80A variant (UniProt P46109 1-111, H80A)
- T1 construct: Crkl adaptor protein, SH2 domain, residues 1-111, His80 replaced by alanine; Site-directed mutant of m1 (QuikChange); source: E. coli BL21 (DE3), purified (HisTrap nickel column, desalting); not shown: His tag, N-terminal, kept
- T1 sequence (P46109 1-111 H80A): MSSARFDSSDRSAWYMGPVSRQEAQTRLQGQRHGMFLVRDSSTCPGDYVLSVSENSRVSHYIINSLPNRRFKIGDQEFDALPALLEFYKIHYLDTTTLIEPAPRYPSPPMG
- protocol: stopped-flow fluorescence kinetics (FRET); dansyl-Pax112-123 constant at 2 μM mixed with Crkl-SH2 2 to 10 μM (pseudo-first-order, kon); koff by displacement of the preincubated 2 µM complex with excess non-dansylated Pax112-123 (30 μM); 283 K; 50 mM sodium-acetate pH 5.5, 0.5 M NaCl
- settings: both partners purified
Square brackets hold non-standard residues; d marks the D form. Ends that are not written are not given here. * marks the point of attachment. pY = N[C@@H](Cc1ccc(OP(=O)(O)O)cc1)C(=O)O; Dansyl = CN(C)c1cccc2c(S(=O)(=O)*)cccc12
measurement name: pKd
Note on units: pKd is unitless, being -log10 of a concentration expressed in mol/L.

What pKd value was documented for this binder, Dansyl-GEEEHV[pY]SFPNK (The dansyl group is the FRET acceptor of Trp14 of the SH2 domain; source: synthetic peptide, bought: GenScript) [dansylated Pax_(112–123) peptide (Dans-GEEEHV-pY-SFPNK)] ?
5.60
